Reported IC50 values follow for various molecules
Tested on: mitochondrial transcription (7S RNA) in HeLa cells
method_summary: Quantitative real time-PCR assay of inhibition of mitochondrial transcription (cellular qPCR assay IMT)
Assay type: cell-based
settings: Homo sapiens, 4 h compound incubation, qRT-PCR according to Example 5, activity class

Below: 2 molecules and their reported IC50.
In [3]: df
Out[3]:
                                   molecule  measure   result
0  Cc1ccccc1-c1cc(=O)oc2cc(OC(C)C(=O)N3CCCCC3)ccc12 (centres unmarked)     IC50  < 10 nM
1  Cc1ccccc1-c1cc(=O)oc2cc(OC(C)C(=O)NC(C)C)ccc12 (centres unmarked)     IC50  < 10 nM

Attention now shifts to the item below.
Exercise: Using known records, supply IC50 for CC(Oc1ccc2c(-c3ccccc3Br)cc(=O)oc2c1)C(=O)N(C)C (centres unmarked)
Solution: < 10 nM

###

Test system: mitochondrial transcription (7S RNA) in HeLa cells
method_summary: Quantitative real time-PCR assay of inhibition of mitochondrial transcription (cellular qPCR assay IMT)
Format: cell-based
settings: Homo sapiens, 4 h compound incubation, qRT-PCR according to Example 5, activity class
measure: IC50

                                   compound  measure        result
0  C[C@@H](Oc1ccc2c(-c3ccc(F)cc3Cl)cc(=O)oc2c1)C(=O)N1CCC[C@H](NC(=O)CCl)C1 [Compound 167]     IC50       < 10 nM
1  C[C@@H](Oc1ccc2c(-c3ccc(F)cc3Cl)cc(=O)oc2c1)C(=O)N1CCC[C@H](CC(=O)O)C1 [Compound 106]     IC50       < 10 nM
2  C[C@@H](Oc1ccc2c(-c3ccc(F)cc3Cl)cc(=O)oc2c1)C(=O)Nc1cccc(C(=O)O)c1 [Compound 139]     IC50  50 to 500 nM

Lab note: next compound to report on.
Exercise: Report IC50, nothing else, for this compound: C=CC(=O)N[C@H]1CCCN(C(=O)[C@@H](C)Oc2ccc3c(-c4ccc(F)cc4Cl)cc(=O)oc3c2)C1 [Compound 165]
Solution: < 10 nM

###

Consider the following pIC50 values measured on mitochondrial RNA-polymerase (POLRMT) (Mus musculus).
Sequence (Q8BKF1 42-1207): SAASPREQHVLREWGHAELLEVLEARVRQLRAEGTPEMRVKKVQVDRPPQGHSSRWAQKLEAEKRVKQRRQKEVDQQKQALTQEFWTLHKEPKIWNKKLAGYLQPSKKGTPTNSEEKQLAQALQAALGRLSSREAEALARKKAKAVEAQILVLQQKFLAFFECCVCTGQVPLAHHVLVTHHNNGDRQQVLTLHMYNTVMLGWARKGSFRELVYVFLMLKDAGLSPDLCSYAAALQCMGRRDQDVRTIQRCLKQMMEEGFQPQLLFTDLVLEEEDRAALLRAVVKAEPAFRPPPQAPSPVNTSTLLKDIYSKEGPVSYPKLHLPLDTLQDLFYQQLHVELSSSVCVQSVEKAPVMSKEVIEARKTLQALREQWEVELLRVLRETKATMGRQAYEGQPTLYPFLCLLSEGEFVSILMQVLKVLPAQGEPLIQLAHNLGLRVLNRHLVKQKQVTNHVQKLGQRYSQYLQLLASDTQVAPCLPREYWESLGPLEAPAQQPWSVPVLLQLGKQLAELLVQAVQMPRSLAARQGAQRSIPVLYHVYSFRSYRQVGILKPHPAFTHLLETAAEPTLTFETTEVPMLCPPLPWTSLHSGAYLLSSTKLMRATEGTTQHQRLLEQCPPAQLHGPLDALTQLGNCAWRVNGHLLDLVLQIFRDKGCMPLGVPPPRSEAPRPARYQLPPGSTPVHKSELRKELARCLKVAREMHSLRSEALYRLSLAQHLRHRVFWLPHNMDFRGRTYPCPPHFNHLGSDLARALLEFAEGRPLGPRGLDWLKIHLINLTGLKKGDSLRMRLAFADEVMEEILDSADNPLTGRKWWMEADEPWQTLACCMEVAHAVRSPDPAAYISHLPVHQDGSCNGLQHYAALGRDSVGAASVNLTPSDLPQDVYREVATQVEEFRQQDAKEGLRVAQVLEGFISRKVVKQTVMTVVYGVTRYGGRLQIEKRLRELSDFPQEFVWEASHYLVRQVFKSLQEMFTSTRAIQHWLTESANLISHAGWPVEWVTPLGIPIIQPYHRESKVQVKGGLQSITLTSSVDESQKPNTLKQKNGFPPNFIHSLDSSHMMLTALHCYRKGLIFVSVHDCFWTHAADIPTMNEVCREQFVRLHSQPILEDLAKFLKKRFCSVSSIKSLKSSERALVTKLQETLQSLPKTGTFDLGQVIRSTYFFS
pIC50: −log10 of the molar value.

>>> df
                                   molecule        result
0  CC(Oc1ccc2c(-c3ccccc3Cl)cc(=O)oc2c1)C(=O)N1CCC[C@@H](C(=O)N(C)C)C1 (stereo partly drawn)  7.00 to 7.70
1  C=CC(=O)N[C@H]1CCCN(C(=O)[C@@H](C)Oc2ccc3c(-c4ccc(F)cc4Cl)cc(=O)oc3c2)C1        > 7.70
2  CCOC(=O)[C@H]1CCCN(C(=O)C(C)Oc2ccc3c(-c4ccccc4C)cc(=O)oc3c2)C1 (stereo partly drawn)        > 7.70
3  CC(Oc1ccc2c(-c3ccccc3Cl)cc(=O)oc2n1)C(=O)N1CCC[C@H](C(=O)O)C1 (mixture of isomers)  7.00 to 7.70
4  C[C@@H](Oc1ccc2c(-c3ccc(F)cc3Cl)cc(=O)oc2c1)C(=O)N1CCC[C@H](C(=O)O)C1        > 7.70
5  CCOC(=O)C(C)Oc1ccc2c(-c3ccccc3C)cc(=O)oc2c1 (stereo not drawn)  7.00 to 7.70

Exercise: Give reported pIC50 for `CC(C)OC(=O)OCOC(=O)C[C@H]1CCCN(C(=O)[C@@H](C)Oc2ccc3c(-c4ccc(F)cc4Cl)cc(=O)oc3c2)C1` (mitochondrial RNA-polymerase (POLRMT) (Mus musculus))
Solution: 7.00 to 7.70

Exercise: Please report the measured pIC50 for `CCc1ccccc1-c1cc(=O)oc2cc(O[C@H](C)C(=O)N3CCC[C@H](C(=O)O)C3)ccc12` tested on mitochondrial RNA-polymerase (POLRMT) (Mus musculus).
Solution: > 7.70

Exercise: Fill in: pIC50 on mitochondrial RNA-polymerase (POLRMT) (Mus musculus), entry `C[C@@H](Oc1ccc2c(-c3ccccc3Cl)cc(=O)oc2c1)C(=O)N1CCCCC1`
Solution: > 7.70
